FYI, the data here is from patent US20230056252A1.

What IC50 was measured for each of the following?
Target: T1, CD3 expressed on cell-surface of primary human T cells (human, UniProt P07766 23-207; P04234 22-171)
T1 construct: also called cell-surface CD3; human CD3
T1 sequence (P07766 23-207 limits assumed, chain 1 of 2): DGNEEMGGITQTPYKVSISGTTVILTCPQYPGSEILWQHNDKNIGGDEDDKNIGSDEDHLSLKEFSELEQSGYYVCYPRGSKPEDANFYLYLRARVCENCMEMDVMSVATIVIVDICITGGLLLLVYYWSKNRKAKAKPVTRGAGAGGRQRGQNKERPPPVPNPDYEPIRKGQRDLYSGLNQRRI
T1 sequence (P04234 22-171 limits assumed, chain 2 of 2): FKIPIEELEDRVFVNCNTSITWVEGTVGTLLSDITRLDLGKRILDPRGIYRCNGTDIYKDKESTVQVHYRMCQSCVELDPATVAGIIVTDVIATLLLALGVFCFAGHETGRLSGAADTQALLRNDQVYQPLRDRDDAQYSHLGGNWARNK
Assay: flow cytometry competition vs murine SP34-AF488 on human T cells, n = 1

Please review the entries below; each comes with its answer.
{"columns": ["binder", "reported_measurement"],
 "data": [
  ["huSP34.2.4 Fab-HF (Fab, V domains shown) VH: EVQLVESGGGLVQPGGSLRLSCAASGFTFSTYAMNWVRQAPGKGLEWVGRIRSKYNNYATYYAASVKGRFTISRDDSKNSLYLQMNSLKTEDTAMYYCVRHGNFGNSYVSWFAVWGQGTLVTVSS VL: QAVVTQEPSLTVSPGGTVTLTCGSSTGAVTTSHYANWVQQKPGQAPRGLIGGTSKRAPWTPARFSGSLLGGKAALTLSGAQPEDEAEYYCALWYSALWVFGGGTKLTVL", "> 20 µg/mL"],
  ["huSP34.3.1 Fab-HF (Fab, V domains shown) VH: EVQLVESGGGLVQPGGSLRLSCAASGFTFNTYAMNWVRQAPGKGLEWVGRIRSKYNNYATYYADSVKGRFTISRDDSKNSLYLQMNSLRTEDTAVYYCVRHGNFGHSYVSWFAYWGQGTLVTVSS VL: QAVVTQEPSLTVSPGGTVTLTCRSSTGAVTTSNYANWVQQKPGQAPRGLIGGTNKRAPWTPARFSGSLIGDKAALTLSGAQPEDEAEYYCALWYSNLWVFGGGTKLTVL", "3.56 µg/mL"]
]}

The binder listed as huSP34.10.2 Fab-HF (Fab, V domains shown) VH: EVQLVESGGGLVQPGGSLRLSCAASGFTFSDYAMNWVRQAPGKGLEWVGRTRSKYNSYATYYAASVKGRFTISRDDSKNSLYLQMNSLKTEDTAVYYCVRHGNFGHSYVSWFAVWGQGTLVTVSS VL: QAVVTQEPSLTVSPGGTVTLTCGSSTGAVTTSNYANWVQQKPGQAPRGLIGGTSNRAPWTPARFSGSLLGGKAALTLSGAQPEDEAEYYCALWYSNLWVFGGGTKLTVL has a reported IC50 of > 20 µg/mL
